Record form. Attribute: melting point. Fill in for each entry.

>  <Molecule>
Cl.OC1CC(CN2CCC(c3ccccc3)CC2)CCc2c(OCc3ccccc3)cccc21 (racemic)

>  <melting point>
198 to 202 °C

$$$$
>  <Molecule>
CO[C@@H]1C[C@H](CN2CCC(c3ccccc3)CC2)CCc2ccccc21.Cl (racemic)

>  <melting point>
213 to 215 °C

$$$$
>  <Molecule>
C1=CC(CN2CCC(c3ccccc3)CC2)CCc2ccccc21.Cl (racemic)

>  <melting point>
> 250 °C

$$$$

Here's the next entry for you.
-- ask Request the reported melting point associated with COc1ccc2c(c1)C(=O)CC(CN1CCC(c3ccccc3)CC1)CC2.Cl (racemic)
-- reply 185 to 188 °C

###

Record form. Attribute: melting point. Fill in for each entry.

# example entries with known answers
>  <Compound>
O[C@@H]1C[C@H](CN2CCC(c3ccccc3)CC2)CCc2ccccc21 (racemic) [Example 9]

>  <melting point>
48 to 50 °C

$$$$
>  <Compound>
COc1cccc2c1CCC(CN1CCC(c3ccccc3)CC1)CC2=O.Cl (racemic)

>  <melting point>
140 to 143 °C

$$$$
>  <Compound>
Cl.c1ccc(C2CCN(C3CCc4ccccc4CC3)CC2)cc1

>  <melting point>
> 250 °C

$$$$

Required: melting point, one value per compound below.
1. COc1cccc2c1CC[C@H](CN1CCC(c3ccccc3)CC1)C[C@H]2O.Cl (racemic)
2. COc1cccc2c1CC[C@@H](CN1CCC(c3ccccc3)CC1)C[C@H]2O.Cl (racemic)
3. COc1cccc2c1C(O)CC(CN1CCC(c3ccccc3)CC1)CC2.Cl (racemic)
4. Cl.O[C@@H]1C[C@H](CN2CCC(c3cccc(Br)c3)CC2)CCc2ccccc21 (racemic)
5. Cl.O=C1CC(CN2CCC(c3ccccc3)CC2)CCc2ccc(Cl)cc21 (racemic)
6. Cl.OC1CC(CN2CCC(c3ccccc3Cl)CC2)CCc2ccccc21 (racemic)
7. Cl.O[C@@H]1C[C@H](CN2CCC(c3ccccc3)CC2)CCc2c(Br)cccc21 (racemic)

-- reply
> 250 °C
229 to 231 °C
176 to 189 °C
> 250 °C
180 to 185 °C
239 to 240 °C
220 to 224 °C

###

Record form. Attribute: melting point. Fill in for each entry.

>  <Compound>
COc1ccccc1C1CCN(C[C@@H]2CCc3ccccc3[C@H](O)C2)CC1 (racemic)

>  <melting point>
72 to 74 °C

$$$$
>  <Compound>
Cl.O=C1CC(CN2CCC(c3ccccc3)CC2)CCc2ccccc21 (racemic)

>  <melting point>
220 °C (dec.)

$$$$

Required: melting point, one value per compound below.
1. CO[C@@H]1C[C@@H](CN2CCC(c3ccccc3)CC2)CCc2ccccc21.Cl (racemic)
2. COc1ccccc1C1CCN(CC2CCc3ccccc3C(=O)C2)CC1.Cl (racemic)
3. Cl.O[C@@H]1C[C@H](CN2CCC(c3ccc(OCc4ccccc4)cc3)CC2)CCc2ccccc21 (racemic)
4. Cc1cc(C)c2c(c1)C(O)CC(CN1CCC(c3ccccc3)CC1)CC2 (racemic)
5. Cl.Oc1ccccc1C1CCN(CC2CCc3ccccc3C(O)C2)CC1 (racemic)
6. Cc1cccc2c1CC[C@@H](CN1CCC(c3ccccc3)CC1)C[C@H]2O (racemic)
7. Cl.O[C@@H]1C[C@H](CN2CCC(c3cccc(F)c3)CC2)CCc2ccccc21 (racemic)
8. C1=CC(CN2CCC(c3ccccc3)CC2)Cc2ccccc21.Cl (racemic)

-- reply
["220 to 222 °C", "232 to 234 °C", "225 to 228 °C", "52 to 55 °C", "158 to 160 °C", "52 to 55 °C", "238 to 240 °C", "239 to 240 °C"]
